Test: Mouse pharmacokinetics study
Assay type: in vivo
Details: mouse; CD-1 mice, PO 25 mg/kg, plasma
A collection of molecules and their measured Tmax
Quick note: give the figure in min, leave out the unit.

molecule: CCN1CC(NC(=O)c2c(F)cncc2Nc2ccc(I)cc2F)C1 [Compound 6]
unit: min
Tmax: 30

Now look at this entry.
C#Cc1ccc(Nc2cncc(F)c2C(=O)NC2CNC2)c(F)c1 [Compound 11] yielded Tmax of 40.2

---

A collection of compounds and their measured Cmax
Assay: Mouse pharmacokinetics study
Assay type: in vivo
Settings: mouse; CD-1 mice, PO 25 mg/kg, plasma
Quick note: give the figure in ng/mL, leave out the unit.

compound: C#Cc1ccc(Nc2cncc(F)c2C(=O)NC2CNC2)c(F)c1 [Compound 11]
Cmax, ng/mL: 1700

Now look at this entry.
CCN1CC(NC(=O)c2c(F)cncc2Nc2ccc(I)cc2F)C1 [Compound 6] yielded Cmax of 1070

---

A collection of compounds and their measured Vd
Assay: Mouse pharmacokinetics study
Type: in vivo
Settings: mouse, plasma; CD-1 mice, IV 5 mg/kg
Source text: The pharmacokinetic properties of Compounds 5 and 6 was studied in CD-1 mice via intravenous and oral administration by using a standard protocol. The test articles were formulated in 20% Hydroxypropyl-beta-cyclodextrin, either as a clear solution or fine suspension.
Quick note: give the figure in L/kg, leave out the unit.

structure.string: CCN1CC(NC(=O)c2c(F)cncc2Nc2ccc(I)cc2F)C1
assay.metric: Vd
reported.measurement: 4.2

Now look at this entry.
C#Cc1ccc(Nc2cncc(F)c2C(=O)NC2CNC2)c(F)c1 yielded Vd of 67.7

---

Experiment: Caco-2 permeability assay
Assay type: in vitro ADME
Conditions: human; Caco-2, basolateral to apical, 1-30 uM, 120 minutes
assay.metric: Papp B→A at 120 min (×10⁻⁶ cm/s)
Quick note: give the figure in ×10⁻⁶ cm/s, leave out the unit.

structure.string: C#Cc1ccc(Nc2cncc(F)c2C(=O)NC2CNC2)c(F)c1
Papp B→A at 120 min, ×10⁻⁶ cm/s: 20.5

Now look at this entry.
CCN1CC(NC(=O)c2c(F)cncc2Nc2ccc(I)cc2F)C1 yielded Papp B→A at 120 min of 42.3
